Field: IC50. Provide a value for each of the molecules that follow.
target: His-tagged full-length RSK2 (RPS6KA3) (Homo sapiens, UniProt P51812)
Sequence (P51812 whole entry): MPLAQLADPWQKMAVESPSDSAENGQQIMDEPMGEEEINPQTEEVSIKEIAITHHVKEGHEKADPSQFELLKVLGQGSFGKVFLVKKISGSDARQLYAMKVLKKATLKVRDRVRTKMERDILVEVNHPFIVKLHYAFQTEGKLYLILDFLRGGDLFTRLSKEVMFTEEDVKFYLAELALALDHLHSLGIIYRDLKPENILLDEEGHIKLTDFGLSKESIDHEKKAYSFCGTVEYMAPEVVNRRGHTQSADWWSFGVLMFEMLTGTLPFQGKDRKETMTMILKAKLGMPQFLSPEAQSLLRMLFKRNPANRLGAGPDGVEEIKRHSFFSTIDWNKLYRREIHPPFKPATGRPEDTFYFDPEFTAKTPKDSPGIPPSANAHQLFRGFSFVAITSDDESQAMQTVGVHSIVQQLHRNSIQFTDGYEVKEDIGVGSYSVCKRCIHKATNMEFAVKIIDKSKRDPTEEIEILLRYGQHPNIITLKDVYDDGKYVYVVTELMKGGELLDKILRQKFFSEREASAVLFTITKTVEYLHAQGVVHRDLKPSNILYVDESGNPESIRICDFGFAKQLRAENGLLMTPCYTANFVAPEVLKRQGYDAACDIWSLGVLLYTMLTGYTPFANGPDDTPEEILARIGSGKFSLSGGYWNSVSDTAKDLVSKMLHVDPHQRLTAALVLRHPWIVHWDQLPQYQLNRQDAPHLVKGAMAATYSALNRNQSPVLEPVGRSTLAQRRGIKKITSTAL

molecule	assayed target	IC50
CC(C)CCN1c2nc(N[C@H]3CC[C@H](O)CC3)ncc2N(c2ccccc2)C(=O)C1C (relative stereo)	His-tagged full-length RSK2 (RPS6KA3) (Homo sapiens, UniProt P51812)	> 1000 nM
C[C@@H]1C(=O)N(c2cccc(C#N)c2)c2cnc(Nc3cc(F)c(O)c(F)c3)nc2N1[C@H]1CC[C@H](C(F)(F)F)CC1	His-tagged full-length RSK2 (RPS6KA3) (Homo sapiens, UniProt P51812)	≤ 100 nM
C[C@@H]1C(=O)N(c2ccc(N(C)C)nc2)c2cnc(Nc3cc(F)c4[nH]ncc4c3)nc2N1C1CCCCC1	His-tagged full-length RSK2 (RPS6KA3) (Homo sapiens, UniProt P51812)	≤ 100 nM

// next entry
The molecule listed as CC(C)CCN1c2nc(Nc3ccc(C(=O)O)cc3)ncc2N(c2ccccc2)C(=O)C1C (stereo not shown) has a reported IC50 of ≤ 100 nM

----------
UniProt:P51812: recorded IC50 for assorted compounds

Example entries begin here.
compound	IC50
C[C@@H]1C(=O)N(c2ccc3ccccc3c2)c2cnc(Nc3ccc4[nH]ncc4c3)nc2N1C1CCCCC1	≤ 100 nM
COC(=O)c1ccc(N2C(=O)[C@@H](C)N(C3CCCCC3)c3nc(Nc4ccc5[nH]ncc5c4)ncc32)cc1	≤ 100 nM
C[C@@H]1C(=O)N(c2ccccc2)c2cnc(Nc3ccc4[nH]ncc4c3)nc2N1CCCO	100 to 1000 nM
C[C@@H]1C(=O)N(c2cccnc2)c2cnc(Nc3cc(F)c(O)c(F)c3)nc2N1C1CCCCC1	≤ 100 nM
C[C@@H]1C(=O)N(c2cccc(C#N)c2)c2cnc(Nc3cc(F)c(O)c(F)c3)nc2N1C1CCCCC1	≤ 100 nM

// each compound listed below needs its IC50
1. COc1ccc(N2C(=O)[C@@H](C)N(C3CCCCC3)c3nc(Nc4ccc5[nH]ncc5c4)ncc32)cc1
2. CNC(=O)Cc1ccc(Nc2ncc3c(n2)N(CCC(C)C)C(C)C(=O)N3c2ccccc2)cc1 (centres unmarked)
3. C[C@@H]1C(=O)N(c2cc(F)cc(F)c2)c2cnc(Nc3ccc4[nH]ncc4c3)nc2N1C1CCCCC1
4. CC(C)Oc1ccc(N2C(=O)[C@@H](C)N(C3CCC(F)(F)CC3)c3nc(Nc4cc(F)c5[nH]c(=O)oc5c4)ncc32)cc1C#N
5. C[C@@H]1C(=O)N(c2cccnc2)c2cnc(Nc3cc(F)c4[nH]ncc4c3)nc2N1C1CCC(F)(F)CC1
6. C[C@@H]1C(=O)N(c2ccc(N3CCN(C)CC3)nc2)c2cnc(Nc3cc(F)c4[nH]ncc4c3)nc2N1C1CCCCC1

1. ≤ 100 nM
2. 100 to 1000 nM
3. ≤ 100 nM
4. ≤ 100 nM
5. ≤ 100 nM
6. ≤ 100 nM

----------
target: His-tagged full-length RSK2 (RPS6KA3) (Homo sapiens)
value kind: IC50

molecule	IC50
COCc1cccc(N2C(=O)[C@@H](C)N(C3CCCCC3)c3nc(Nc4ccc5[nH]ncc5c4)ncc32)c1	≤ 100 nM
C[C@@H]1C(=O)N(c2ccc(F)cc2)c2cnc(Nc3ccc4[nH]ncc4c3)nc2N1C1CCCCC1	≤ 100 nM
C[C@@H]1C(=O)N(c2cccc(F)c2)c2cnc(Nc3cc(F)c4[nH]ncc4c3)nc2N1C1CCC(F)(F)CC1	≤ 100 nM

// each molecule listed below needs its IC50
1. C[C@@H]1C(=O)N(c2ccccc2)c2cnc(Nc3ccc4[nH]ncc4c3)nc2N1CC1CCCCC1
2. C[C@@H]1C(=O)N(c2csc(C(=O)O)c2)c2cnc(Nc3ccc4[nH]ncc4c3)nc2N1C1CCCCC1
3. C[C@@H]1C(=O)N(c2cccc(C#N)c2)c2cnc(Nc3cc(F)c4[nH]ncc4c3)nc2N1[C@H]1CC[C@@H](C)CC1
4. C[C@@H]1C(=O)N(c2ccc(N3CCN(C)CC3)c(C#N)c2)c2cnc(Nc3cc(F)c4[nH]ncc4c3)nc2N1C1CCOCC1
5. C[C@@H]1C(=O)N(c2cccc(C#N)c2)c2cnc(Nc3cc(F)c4[nH]ncc4c3)nc2N1C1CCOCC1
6. CSc1ccc(N2C(=O)[C@@H](C)N(C3CCCCC3)c3nc(Nc4ccc5[nH]ncc5c4)ncc32)cn1
7. C[C@@H]1C(=O)N(c2cccc(C#N)c2)c2cnc(Nc3ccc4[nH]c(=O)oc4c3)nc2N1C1CCCCC1

1. ≤ 100 nM
2. ≤ 100 nM
3. ≤ 100 nM
4. ≤ 100 nM
5. ≤ 100 nM
6. ≤ 100 nM
7. ≤ 100 nM

// each molecule listed below needs its IC50
1. COc1ccc(N2C(=O)[C@@H](C)N(C3CCCCC3)c3nc(Nc4ccc5[nH]ncc5c4)ncc32)cc1OC
2. CCOP(=O)(Cc1ccc(Nc2ncc3c(n2)N(CCC(C)C)C(C)C(=O)N3c2ccccc2)cc1)OCC (stereo not shown)
3. COc1cc(F)cc(N2C(=O)[C@@H](C)N(C3CCCCC3)c3nc(Nc4ccc5[nH]ncc5c4)ncc32)c1
4. C[C@@H]1C(=O)N(c2cccc(C#N)c2)c2cnc(Nc3cc(F)c4[nH]ncc4c3)nc2N1C1CCC(F)(F)CC1
5. COc1ccc(N2C(=O)[C@@H](C)N(C3CCCCC3)c3nc(NCc4cn[nH]c4)ncc32)cc1OC

1: ≤ 100 nM; 2: > 1000 nM; 3: ≤ 100 nM; 4: ≤ 100 nM; 5: > 1000 nM

// each molecule listed below needs its IC50
1. COc1ccc(N2C(=O)[C@@H](C)N([C@H]3CC[C@H](OC)CC3)c3nc(Nc4cnc5[nH]ncc5c4)ncc32)cc1C#N
2. CC(C)CCN1c2nc(Nc3ccc4[nH]ncc4c3)ncc2N(c2ccccc2)C(=O)C1C (stereo not shown)

1. ≤ 100 nM
2. ≤ 100 nM

// each molecule listed below needs its IC50
1. COc1ccc(N2C(=O)[C@@H](C)N(C3CCCCC3)c3nc(NCCc4cn[nH]c4)ncc32)cc1OC
2. O=c1c(=O)n(C2CCCC2)c2nc(Nc3ccc4[nH]ncc4c3)ncc2n1-c1ccccc1
3. C[C@@H]1C(=O)N(c2ccc(OC(F)(F)F)cc2)c2cnc(Nc3ccc4[nH]ncc4c3)nc2N1C1CCCCC1
4. C[C@@H]1C(=O)N(c2cccc(F)c2)c2cnc(Nc3ccc4[nH]ncc4c3)nc2N1C1CCCCC1
5. C[C@@H]1C(=O)N(c2cccc(C#N)c2)c2cnc(Nc3ccc4[nH]ncc4c3)nc2N1C1CCC(C)(C)CC1
6. C[C@@H]1C(=O)N(c2cccc(C#N)c2)c2cnc(Nc3cc(Cl)c4[nH]ncc4c3)nc2N1C1CCCCC1
7. C[C@@H]1C(=O)N(c2cccc(C#N)c2)c2cnc(Nc3ccc4c(c3)CS(=O)(=O)N4)nc2N1C1CCCCC1

> 1000 nM
100 to 1000 nM
100 to 1000 nM
≤ 100 nM
≤ 100 nM
≤ 100 nM
≤ 100 nM

// each molecule listed below needs its IC50
1. CC(C)CCN1c2cc(Nc3ccc4[nH]ncc4c3)ncc2N(c2ccccc2)C(=O)C1C (stereo not shown)
2. CCOc1ccc(N2C(=O)[C@@H](C)N([C@H]3CC[C@H](C)CC3)c3nc(Nc4cnc5[nH]ncc5c4)ncc32)cc1C#N
3. C[C@@H]1C(=O)N(c2ccc(C#N)cc2)c2cnc(Nc3ccc4[nH]ncc4c3)nc2N1C1CCCCC1
4. COc1ccc(N2C(=O)[C@@H](C)N(C3CCCCC3)c3nc(Nc4cc(F)c(O)c(F)c4)ncc32)cc1OC

1. 100 to 1000 nM
2. ≤ 100 nM
3. ≤ 100 nM
4. ≤ 100 nM
